experimentalTarget: Renin (Homo sapiens, UniProt P00797)
Sequence (P00797 whole entry): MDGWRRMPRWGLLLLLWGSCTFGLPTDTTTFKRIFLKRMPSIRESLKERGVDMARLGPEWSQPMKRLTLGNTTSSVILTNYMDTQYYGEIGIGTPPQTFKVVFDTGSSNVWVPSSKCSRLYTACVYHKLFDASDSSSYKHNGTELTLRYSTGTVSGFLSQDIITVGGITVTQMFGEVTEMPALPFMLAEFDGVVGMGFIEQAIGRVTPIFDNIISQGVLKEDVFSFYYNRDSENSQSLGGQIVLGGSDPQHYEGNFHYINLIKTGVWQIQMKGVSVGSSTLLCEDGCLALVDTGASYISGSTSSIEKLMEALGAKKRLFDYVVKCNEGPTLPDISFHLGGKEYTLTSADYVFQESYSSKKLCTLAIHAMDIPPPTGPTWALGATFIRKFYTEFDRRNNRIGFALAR
testName: Tested in vitro for its ability to inhibit the human plasma renin at pH of 7.4
Assay type: cell-free
Below: a set of entries, each annotated with reported IC50.
quantity: IC50 (nM)

- CCCC[C@H](O[C@@H](Cc1ccccc1)C(=O)N1CCC(OCOC)CC1)C(=O)N[C@@H](CC1CCCCC1)[C@@H](O)C[C@H](C(=O)NCCCNCCO)C(C)C: 6
- CCCC[C@H](O[C@@H](Cc1ccccc1)C(=O)N1CCC(OCOC)CC1)C(=O)N[C@@H](CC1CCCCC1)[C@@H](O)C[C@H](C(=O)NCCNC(C)=O)C(C)C: 2.6
- CCCC[C@H](O[C@@H](Cc1ccccc1)C(=O)N1CCC(OCOC)CC1)C(=O)N[C@@H](CC1CCCCC1)[C@@H](O)C[C@H](C(=O)NCCC(=O)OCC)C(C)C: 12
- CCCC[C@H](O[C@@H](Cc1ccccc1)C(=O)N1CCC(OCOC)CC1)C(=O)N[C@@H](CC1CCCCC1)[C@@H](O)C[C@H](C(=O)NCCCNc1nnc(N)[nH]1)C(C)C: 1.7
- CCCC[C@H](O[C@@H](Cc1ccccc1)C(=O)N1CCC(OCOC)CC1)C(=O)N[C@@H](CC1CCCCC1)[C@@H](O)C[C@H](C(=O)NCCCNC(=O)OCc1ccccc1)C(C)C: 4.3
- CCCC[C@H](O[C@@H](Cc1ccccc1)C(=O)N1CCC(OCOC)CC1)C(=O)N[C@@H](CC1CCCCC1)[C@@H](O)C[C@H](C(=O)NCCNc1noc(N)n1)C(C)C: 3.1
- CCCC[C@H](O[C@@H](Cc1ccccc1)C(=O)N1CCC(OCOC)CC1)C(=O)N[C@@H](CC1CCCCC1)[C@@H](O)C[C@H](C(=O)NCCN)C(C)C: 3.9
- CCCC[C@H](O[C@@H](Cc1ccccc1)C(=O)N1CCC(OCOC)CC1)C(=O)N[C@@H](CC1CCCCC1)[C@@H](O)C[C@H](C(=O)NCCCCN1CCOCC1)C(C)C: 3.3

Data origin: ChEMBL document CHEMBL1127457
